- Tested on: NCI-H322M lung
- PROCEDURE TEXT: NCI-60 one-dose screen, 48 h
- MEASUREMENT CONDITIONS: 10 µM unless noted
About 83,000 compounds went through this panel and 20% of them were active in at least one assay; those are over-represented in the sample as a whole. Activity calls are given as the source filed them. The calls were made as follows: active = growth percent below 10; inactive = the rest.
Classes used: active, inactive

[
  {
    "MOLECULE": "COC(=O)CCC1=C(C)C(C)=N/C1=C\\c1[nH]c(-c2ccc[nH]2)cc1OC",
    "TARGET OR TEST SYSTEM": "NCI-H322M lung",
    "QUALITATIVE LABEL": "inactive"
  },
  {
    "MOLECULE": "O=[N+]([O-])c1cnc(Sc2ccncn2)c([N+](=O)[O-])c1",
    "TARGET OR TEST SYSTEM": "NCI-H322M lung",
    "QUALITATIVE LABEL": "inactive"
  },
  {
    "MOLECULE": "NC(N)=NC(N)=NCCCc1ccccc1",
    "TARGET OR TEST SYSTEM": "NCI-H322M lung",
    "QUALITATIVE LABEL": "inactive"
  },
  {
    "MOLECULE": "CO[C@H]1/C=C/O[C@@]2(C)Oc3c(C)c(O)c4c(O)c(c(/C=N/N5CCN(C)CC5)c(O)c4c3C2=O)NC(=O)/C(C)=C\\C=C\\C(C)[C@H](O)[C@@H](C)[C@@H](O)[C@@H](C)[C@@H](OC(C)=O)[C@@H]1C (stereo not given in full)",
    "TARGET OR TEST SYSTEM": "NCI-H322M lung",
    "QUALITATIVE LABEL": "inactive"
  },
  {
    "MOLECULE": "CCCCCCCCCCC[C@@H](C[C@H]1OC(=O)[C@H]1CCCCCC)OC(=O)[C@@H](CC(C)C)NC=O",
    "TARGET OR TEST SYSTEM": "NCI-H322M lung",
    "QUALITATIVE LABEL": "inactive"
  },
  {
    "MOLECULE": "O=C(CCc1nnc2sc(-c3ccc(Cl)cc3Cl)nn12)c1nc2ccccc2[nH]1",
    "TARGET OR TEST SYSTEM": "NCI-H322M lung",
    "QUALITATIVE LABEL": "active"
  },
  {
    "MOLECULE": "O=C(C(=O)N1CCCCC1)c1ccc(OC2OC(CO)C(O)C(O)C2O)cc1 (stereo not given)",
    "TARGET OR TEST SYSTEM": "NCI-H322M lung",
    "QUALITATIVE LABEL": "inactive"
  },
  {
    "MOLECULE": "CSc1ncc2ncn(C3OC(CO)C(O)C3O)c2n1 (stereo not given)",
    "TARGET OR TEST SYSTEM": "NCI-H322M lung",
    "QUALITATIVE LABEL": "inactive"
  },
  {
    "MOLECULE": "Cn1cc(-c2csc(-c3cn(C)c4ncccc34)n2)c2cccnc21",
    "TARGET OR TEST SYSTEM": "NCI-H322M lung",
    "QUALITATIVE LABEL": "inactive"
  },
  {
    "MOLECULE": "Cc1ccc(C=C2C(Cl)=C(Cl)C(Cl)=C2Cl)cc1",
    "TARGET OR TEST SYSTEM": "NCI-H322M lung",
    "QUALITATIVE LABEL": "active"
  },
  {
    "MOLECULE": "O=C1C(Cl)=C(N=Nc2c(Cl)c(O)c3ccccc3c2O)C(=O)c2ccccc21",
    "TARGET OR TEST SYSTEM": "NCI-H322M lung",
    "QUALITATIVE LABEL": "inactive"
  },
  {
    "MOLECULE": "C[N+]1(CCC[N+]2(C)C[C@@H]3[C@H](C2)[C@@H]2C=C[C@H]3C2)CCOCC1 (stereo not given in full)",
    "TARGET OR TEST SYSTEM": "NCI-H322M lung",
    "QUALITATIVE LABEL": "inactive"
  },
  {
    "MOLECULE": "N#CCNc1ccccc1N",
    "TARGET OR TEST SYSTEM": "NCI-H322M lung",
    "QUALITATIVE LABEL": "inactive"
  },
  {
    "MOLECULE": "CCC1=C(c2ccc(OC)cc2)C(C)(C)Oc2c1ccc(O)c2CN1CCCC1",
    "TARGET OR TEST SYSTEM": "NCI-H322M lung",
    "QUALITATIVE LABEL": "inactive"
  },
  {
    "MOLECULE": "CC(=O)Oc1c(C)c(OC(C)=O)c2c(c1C(C)=O)OC1CC(=O)C(C(C)=O)=C(O)C21C (stereo not given)",
    "TARGET OR TEST SYSTEM": "NCI-H322M lung",
    "QUALITATIVE LABEL": "inactive"
  },
  {
    "MOLECULE": "COc1ccc(/C=C(\\C#N)c2ccccc2)cc1",
    "TARGET OR TEST SYSTEM": "NCI-H322M lung",
    "QUALITATIVE LABEL": "inactive"
  },
  {
    "MOLECULE": "O=C1/C(=C/c2ccc([N+](=O)[O-])s2)Oc2ccc(Br)cc21",
    "TARGET OR TEST SYSTEM": "NCI-H322M lung",
    "QUALITATIVE LABEL": "active"
  },
  {
    "MOLECULE": "COc1ccc(-c2cc(C(=O)Nc3nc4cc(C)c(C)cc4s3)nc3cc(-c4ccccc4)nn23)cc1OC",
    "TARGET OR TEST SYSTEM": "NCI-H322M lung",
    "QUALITATIVE LABEL": "inactive"
  },
  {
    "MOLECULE": "Cc1nc2cc(NC(=O)CN3CCN(CCN4C(=O)c5cccc6cccc(c56)C4=O)CC3)ccc2s1",
    "TARGET OR TEST SYSTEM": "NCI-H322M lung",
    "QUALITATIVE LABEL": "inactive"
  },
  {
    "MOLECULE": "CCN(CC)CCCCNc1c2ccccc2[n+](C)c2c1[nH]c1ccccc12",
    "TARGET OR TEST SYSTEM": "NCI-H322M lung",
    "QUALITATIVE LABEL": "active"
  }
]
